Here's what we have: IC50 numbers for Acetylcholinesterase (Homo sapiens, UniProt P22303).

chemical.smiles	measurement.target	reading.unit	comparison.sign	IC50
CC(C)C1=N[C@H]2CC[C@]34C[C@]35C(=O)C[C@]3(C)[C@@H]([C@H](C)N(C)C)[C@H](O)C[C@@]3(C)[C@@H]5CC[C@H]4[C@]2(C)N1	Acetylcholinesterase (Homo sapiens, UniProt P22303)	nM	>	10000
COc1cccc(CN(C)[C@@H](C)[C@H]2[C@H](O)C[C@@]3(C)[C@@H]4CC[C@H]5[C@]6(C)CSC(C(C)C)=N[C@H]6CC[C@@]56C[C@@]46C(=O)C[C@]23C)c1	Acetylcholinesterase (Homo sapiens, UniProt P22303)	nM	=	3
C[C@@H]([C@H]1[C@H](O)C[C@@]2(C)[C@@H]3CC[C@H]4[C@]5(C)COC(C(C)(C)F)=N[C@H]5CC[C@@]45C[C@@]35C(=O)C[C@]12C)N(C)C	Acetylcholinesterase (Homo sapiens, UniProt P22303)	nM	=	744
CC(C)C1=N[C@H]2CC[C@]34C[C@]35C(=O)C[C@]3(C)[C@@H]([C@H](C)N(C)Cc6cccc(C(F)(F)F)c6)[C@H](O)C[C@@]3(C)[C@@H]5CC[C@H]4[C@]2(C)CS1	Acetylcholinesterase (Homo sapiens, UniProt P22303)	nM	=	3
CC(=O)N(C)[C@@H](C)[C@H]1[C@H](O)C[C@@]2(C)[C@@H]3CC[C@H]4[C@]5(C)CSC(C(C)C)=N[C@H]5CC[C@@]45C[C@@]35C(=O)C[C@]12C	Acetylcholinesterase (Homo sapiens, UniProt P22303)	nM	=	298
CC(C)C1=N[C@H]2CC[C@]34C[C@]35C(=O)C[C@]3(C)[C@@H]([C@H](C)N(C)CCN6C(=O)c7ccccc7C6=O)[C@H](O)C[C@@]3(C)[C@@H]5CC[C@H]4[C@]2(C)CS1	Acetylcholinesterase (Homo sapiens, UniProt P22303)	nM	=	70
CC(C)C1=N[C@H]2CC[C@]34C[C@]35C(=O)C[C@]3(C)[C@@H]([C@H](C)N(C)C(=O)OC(C)(C)C)[C@H](O)C[C@@]3(C)[C@@H]5CC[C@H]4[C@]2(C)CS1	Acetylcholinesterase (Homo sapiens, UniProt P22303)	nM	=	159
CC(C)C1=N[C@H]2CC[C@]34C[C@]35C(=O)C[C@]3(C)[C@@H]([C@H](C)N(C)C)[C@H](O)C[C@@]3(C)[C@@H]5CC[C@H]4[C@]2(C)CC1	Acetylcholinesterase (Homo sapiens, UniProt P22303)	nM	=	618
CC(C)C1=N[C@H]2CC[C@]34C[C@]35C(=O)C[C@]3(C)[C@@H]([C@H](C)N(C)Cc6ccccc6C(F)(F)F)[C@H](O)C[C@@]3(C)[C@@H]5CC[C@H]4[C@]2(C)CS1	Acetylcholinesterase (Homo sapiens, UniProt P22303)	nM	=	11
CC(C)C1=N[C@H]2CC[C@]34C[C@]35C(=O)C[C@]3(C)[C@@H]([C@H](C)N(C)Cc6ccc(C(F)(F)F)cc6)[C@H](O)C[C@@]3(C)[C@@H]5CC[C@H]4[C@]2(C)CS1	Acetylcholinesterase (Homo sapiens, UniProt P22303)	nM	=	3
